Provenance of the data: patent US11015216B2

# System: luciferase
# assay_info: Additional luciferase substrate assay, compared to known analogue C-1 (Table 3)
# Format: biochemical
# experimental_conditions: relative to C-1 (=1)
# Method: Luminescence Assay Procedure: Each compound to be screened was dissolved in DMSO (5 mM) and then further diluted to 100 uM in NANO-GLOR Luciferase Assay Buffer. […] Initial light output for each substrate was measured in a GloMax®-Multi+ luminometer three minutes after substrate addition and then at five minute intervals as a means to determine signal half-life. The compounds of formula (I) were also evaluated for their ability to be luciferase substrates in an additional assay.
RLU (@100 uM) below 0.1 gives NO; RLU (@100 uM) at or above it gives YES.

Record excerpt, results attached:
[
  {
    "compound": "O=c1c(Cc2ccc(Cl)nc2)nc2c(Cc3ccccc3)[nH]c(-c3ccccc3)cn1-2 [Compound 69]",
    "cat": "YES"
  },
  {
    "compound": "CCCSc1ncc(Cc2nc3c(Cc4ccccc4)[nH]c(-c4ccccc4)cn-3c2=O)cn1 [Compound 56]",
    "cat": "NO"
  },
  {
    "compound": "NCc1cccc(Cc2nc3c(Cc4ccccc4)[nH]c(-c4ccccc4)cn-3c2=O)c1 [Compound 48]",
    "cat": "NO"
  },
  {
    "compound": "O=c1c(Cc2cncc(F)c2)nc2c(Cc3ccccc3)[nH]c(-c3ccccc3)cn1-2 [Compound 66]",
    "cat": "NO"
  },
  {
    "compound": "COc1cc(Cc2nc3c(Cc4ccccc4)[nH]c(-c4ccccc4)cn-3c2=O)ccc1F [Compound 18]",
    "cat": "YES"
  }
]

Please check the record COc1ccc(Cc2nc3c(Cc4ccccc4)[nH]c(-c4ccccc4)cn-3c2=O)s1 [Compound 24] and state if its RLU (@100 uM) is at or above 0.1.
YES

Check if RLU (@100 uM) >= 0.1 (inclusive). Item: O=c1c(Cc2ccc(F)nc2)nc2c(Cc3ccccc3)[nH]c(-c3ccccc3)cn1-2 [Compound 68]
YES
